- Study Target: HLA-B*45:01
- Test Protocol: IEDB peptide-MHC binding, purified MHC/competitive/radioactivity; filed as Kd, often an IC50 or EC50 that approximates it; bounds were set here for any values at or beyond the usual limits of such assays
- Condition Description: source organism: SARS coronavirus Tor2
For each of the sequences below, state its pKd.
On this scale, pKd is minus log10 of a concentration expressed in M (mol/L).

Query the reported pKd for HLA-B*45:01; item: `SEVAVLYQDV`
6.70

Please provide the recorded pKd for `QECNNMHLST` , tested on HLA-B*45:01.
6.20

GET /values?readout=pKd&system=HLA-B*45:01&item= `TEVVGNVIL`
4.82

# returns recorded pKd (system: HLA-B*45:01) for `ADVFHLYLQY`
4.94

Value wanted: pKd (HLA-B*45:01) of entry `REAACCHLA`
7.94

# get_value(readout= pKd, system= HLA-B*45:01) for `AEIVDTVSA`
8.07

Item: `FEIDKGIYQT` Test system: HLA-B*45:01 Read-out: pKd Value: ?
5.51

What measured pKd is associated with `AEVEWKFYDA` on HLA-B*45:01?
8.26

HLA-B*45:01 / pKd / `HEFVDEFYAY` : value?
5.14

Lab note: need pKd with HLA-B*45:01 for entry `QEAYYRARAG` , please look it up.
6.22

Notebook: pull reported pKd for HLA-B*45:01, entry `GENAVIPKG`
6.08

# value lookup — system HLA-B*45:01, readout pKd, item `CEKALKYLPI`
6.98

Give recorded pKd with HLA-B*45:01 for the following sequence: `IEELFYSYA`
7.31

* * *

- Study Target: HLA-B*18:01
- Test Protocol: IEDB peptide-MHC binding, purified MHC/competitive/fluorescence; filed as Kd, often an IC50 or EC50 that approximates it; bounds were set here for any values at or beyond the usual limits of such assays
- Condition Description: source organism: Orthohantavirus khabarovskense
Result Type: Kd

Could you tell me which Kd is on file for `FSLPSSSSY` ?
≥ 20 µM

* * *

- Study Target: HLA-B*44:03
- Test Protocol: IEDB peptide-MHC binding, purified MHC/competitive/radioactivity; filed as Kd, often an IC50 or EC50 that approximates it; bounds were set here for any values at or beyond the usual limits of such assays
- Condition Description: source organism: Mammarenavirus lassaense
Result Type: pKd
On this scale, pKd is minus log10 of a concentration expressed in M (mol/L).

Item `FDAAVMGGF` has what recorded pKd?
4.74

* * *

- Study Target: HLA-B*51:01
- Test Protocol: IEDB peptide-MHC binding, purified MHC/competitive/radioactivity; filed as Kd, often an IC50 or EC50 that approximates it; bounds were set here for any values at or beyond the usual limits of such assays
- Condition Description: source organism: Variola virus
Result Type: Kd (µM)
Express your answer in µM, writing the number without its unit.

Return reported Kd; argument: `HPRHYATIM`
19.1

* * *

- Study Target: HLA-B*08:01
- Test Protocol: IEDB peptide-MHC binding, purified MHC/direct/fluorescence; filed as Kd, often an IC50 or EC50 that approximates it; bounds were set here for any values at or beyond the usual limits of such assays
- Condition Description: source organism: Orthohantavirus andesense
Result Type: Kd

Look at this sequence and give its reported Kd. `SIKFKRKLM`
≥ 5 µM

* * *

- Study Target: HLA-A*26:01
- Test Protocol: IEDB peptide-MHC binding, purified MHC/competitive/radioactivity; filed as Kd, often an IC50 or EC50 that approximates it; bounds were set here for any values at or beyond the usual limits of such assays
- Condition Description: source organism: SARS coronavirus Tor2
Result Type: pKd
Quick note: pKd means taking -log10 of the concentration in moles per liter.

// lookup pKd for `YTGNYQCGHY`
6.89

Which pKd value is on record for `LTKGTLEPEY` ?
5.70

Given the sequence `LTQDLFLPFY` , what is its reported pKd?
6.32

Record request: pKd value, item `HSVGFDYVY`
6.23

Reported pKd, sequence `EIEPKLDGYY` : ____
6.79

For the sequence `VSVKMFDAY` , what pKd is on record?
4.94

* * *

For each of the sequences below, state its pKd.
- Study Target: HLA-A*30:01
- Test Protocol: IEDB peptide-MHC binding, purified MHC/competitive/fluorescence; filed as Kd, often an IC50 or EC50 that approximates it; bounds were set here for any values at or beyond the usual limits of such assays
- Condition Description: source organism: Human immunodeficiency virus 1
By convention, pKd is the negative base-10 log of a molar concentration.

Sample `GTEEIRSLY` — what was its pKd?
4.89

What measured pKd goes with `KLKSLYNTV` ?
8.89

* * *

- Study Target: HLA-B*15:01
- Test Protocol: IEDB peptide-MHC binding, purified MHC/competitive/radioactivity; filed as Kd, often an IC50 or EC50 that approximates it; bounds were set here for any values at or beyond the usual limits of such assays
- Condition Description: source organism: Dengue virus 1 Brazil/97-11/1997
Please respond with reported Kd for every item in the list.
The reply should contain only the number, in nM.

Looking for the measured Kd of `LVHQVFGTAY` , can you help?
7.15

For `HQLWTTLLSL` , what is its reported Kd?
1.2

* * *

- Study Target: HLA-C*06:02
- Test Protocol: IEDB peptide-MHC binding, purified MHC/direct/fluorescence; filed as Kd, often an IC50 or EC50 that approximates it; bounds were set here for any values at or beyond the usual limits of such assays
- Condition Description: source organism: Shigella boydii CDC 3083-94
pKd: −log10 of the molar value.
Result Type: pKd

For `GMMRWCMPV` , what is its reported pKd?
≤ 4.70

* * *

- Study Target: HLA-B*51:01
- Test Protocol: IEDB peptide-MHC binding, purified MHC/direct/fluorescence; filed as Kd, often an IC50 or EC50 that approximates it; bounds were set here for any values at or beyond the usual limits of such assays
- Condition Description: source organism: Orthohantavirus hantanense
Result Type: Kd

# get_value(readout='Kd', item= `TPGRYRTAV` )
≥ 20 µM

* * *

- Study Target: HLA-B*08:01
- Test Protocol: IEDB peptide-MHC binding, purified MHC/direct/fluorescence; filed as Kd, often an IC50 or EC50 that approximates it; bounds were set here for any values at or beyond the usual limits of such assays
- Condition Description: source organism: Pseudomonas aeruginosa UCBPP-PA14
pKd: −log10 of the molar value.
Result Type: pKd

Give the measured pKd of `ANPGRVKDW` .
≤ 4.70

Using the record for `RDYRTISPR` , report its pKd.
≤ 4.70

* * *

- Study Target: HLA-A*02:01
- Test Protocol: IEDB peptide-MHC binding, purified MHC/direct/fluorescence; filed as Kd, often an IC50 or EC50 that approximates it; bounds were set here for any values at or beyond the usual limits of such assays
- Condition Description: source organism: Haemophilus influenzae
Result Type: Kd (µM)
Report only the number, with the unit µM understood.

Bench note: what Kd did `RMGVKSQLL` show?
3.13

* * *

- Study Target: HLA-A*01:01
- Test Protocol: IEDB peptide-MHC binding, purified MHC/competitive/fluorescence; filed as Kd, often an IC50 or EC50 that approximates it; bounds were set here for any values at or beyond the usual limits of such assays
- Condition Description: source organism: Cryptosporidium parvum Iowa II
Result Type: Kd (nM)
Enter your answer as a number in nM; do not include the unit.

Need Kd, item `FTWQHNYYL`
463

* * *

- Study Target: HLA-A*31:01
- Test Protocol: IEDB peptide-MHC binding, purified MHC/competitive/radioactivity; filed as Kd, often an IC50 or EC50 that approximates it; bounds were set here for any values at or beyond the usual limits of such assays
- Condition Description: source organism: Mammarenavirus lassaense
Result Type: Kd (µM)
Kindly answer with a numeric value in µM, unit omitted.

Which value of Kd has been reported for `TLGSFTWFPH` in the records?
0.782

* * *

- Study Target: HLA-C*15:02
- Test Protocol: IEDB peptide-MHC binding, purified MHC/direct/fluorescence; filed as Kd, often an IC50 or EC50 that approximates it; bounds were set here for any values at or beyond the usual limits of such assays
- Condition Description: source organism: Vibrio cholerae MAK 757
Result Type: Kd

Entry `KLTEEIIKL` has what Kd?
≥ 20 µM

* * *

- Study Target: HLA-A*31:01
- Test Protocol: IEDB peptide-MHC binding, purified MHC/competitive/fluorescence; filed as Kd, often an IC50 or EC50 that approximates it; bounds were set here for any values at or beyond the usual limits of such assays
- Condition Description: source organism: Bacillus anthracis str. A0488
Result Type: pKd
Recall that pKd is obtained by taking minus log10 of the concentration measured in molar.

Consider the sequence `KLSSMAAER` and give its measured pKd.
7.80
